tested on: SW-620; test: NCI tumour cell line growth inhibition, 48 h
Calls of active or inactive are those of the source. Cut-off read from the data, not from the text of the source: active = GI50 up to about 1.1 µM and inactive = higher.
# output must be one of active, inactive

Example entries begin here.
CC(=O)OCC1OC(OCC2OC(N3C(=S)N[C@H]([C@@H](O)[C@H](O)[C@H](O)CO)[C@H]3O)C(OC(C)=O)C(OC(C)=O)C2OC(C)=O)C(OC(C)=O)C(OC(C)=O)C1OC(C)=O (some centres undefined)
inactive
CC[C@]12C=CCN3CC[C@@]4(c5cc(N=O)c(OC)cc5N(C)[C@H]4[C@@](O)(C(=O)NC(Cc4c[nH]c5ccccc45)C(=O)OC)[C@@H]1O)[C@@H]32 (some centres undefined)
inactive
CC1=C(CO)C2=C(C)C3(CC3)[C@@](C)(O)C(=O)C2=C1 [IROFULVEN]
active
CSc1c(C)c(C)nn1-c1ccccc1
inactive
Oc1c(Cl)c(Cl)c(O)c(CCNc2ccc3ncccc3c2)c1Cl
inactive
O=C(N/N=C/c1ccc(Cl)cc1)c1cc(I)cc(I)c1O
inactive
COc1ccc(N2CCOCC2)cc1
inactive
COc1ccc(OC)c2c1C1CCC(=O)N1CN2C(C)=O (centres undefined)
inactive

Next, consider the following molecule.
Query: // return assay outcome for Oc1cccc(Nc2cc(O)nc(O)n2)c1
Reply: inactive

---

system: SK-MEL-2; test: NCI tumour cell line growth inhibition, 48 h
The source made the active and inactive calls. Cut-off read from the data, not from the text of the source: active = GI50 up to about 1.1 µM and inactive = higher.
measurementName: GI50

CC[C@H](C)[C@H](NC(=O)[C@@]1(O)[C@H](O)[C@]2(CC)C=CCN3CC[C@@]4(c5cc(Br)c(OC)cc5N(C)[C@@H]14)[C@@H]32)C(=O)OC
26.2 µM (inactive)
CN1CCN(Cn2nc(COc3ccc(Cl)cc3)n(/N=C/c3ccc(-c4ccc(Cl)cc4Cl)o3)c2=S)CC1
18.3 µM (inactive)
Cc1c(-c2nc(N)nc(C3CC3)c2C)nc(N)nc1C1CC1
> 100 µM (inactive)
COc1ccc(/C=N/NC(=O)c2cnc3[nH]c(=O)n(C)c(=O)c3c2)cc1
44.3 µM (inactive)
COC1(OC)N=C(N)C2(C#N)C(c3ccccc3)NC3=C(CCC3)C12C#N (stereo not given)
> 100 µM (inactive)
C[N+]1(C)CCCC1C(=O)[O-] (stereo not given)
> 100 µM (inactive)

Query: Please give the measured GI50 for this molecule: N#COc1ccc(Oc2ccccc2)cc1
Reply: 74.3 µM (inactive)

Query: Please answer likewise for CCOP12(OCC)NC(=O)OC1(C(F)(F)F)c1ccccc1O2 (stereo not given)
Reply: > 100 µM (inactive)

Query: Please do the same for CCN(Cc1cc(Cl)cc(C)c1O)Cc1c(O)ccc2ccccc12 as well.
Reply: 16.4 µM (inactive)

Query: # iterate: CC1=CC=NN2C(=O)[C@H](C)C2C1 (stereo not given in full)
Reply: > 100 µM (inactive)

Query: And what about the molecule CC(C)(C)N/N=N/c1cn(C2OC(CO)C(O)C2O)c(=O)[nH]c1=O (stereo not given) ?
Reply: > 100 µM (inactive)

Query: Quick one: CC1=C(C(=O)NC(C)(C)C)CC(C(=O)NC(C)(C)C)C(C)N1 (stereo not given)
Reply: > 100 µM (inactive)

Query: Queued: CCC1CC2CN3CCc4c([nH]c5c(-c6c(OC)ccc7c8c([nH]c67)[C@]6(C(=O)OC)CC7CC(CC)C6N(CC8)C7)c(O)ccc45)[C@](C(=O)OC)(C2)C13 (stereo not given in full)
Reply: 20.9 µM (inactive)

Query: Record: O=S(O)CCCCCSSCCCCSSCCCCCS(=O)O
Reply: > 100 µM (inactive)

Query: Same read-out for CCOC(=O)C1C(=S)NC(=O)C1C#N (stereo not given) ?
Reply: > 100 µM (inactive)

Query: Another molecule to check: O=[N+]([O-])c1ccc2nc(O)n[n+]([O-])c2c1
Reply: > 100 µM (inactive)

Query: Queued: CC(=O)OC1(C#N)CC2OC1C1C2N1C(=O)OC(C)(C)C (stereo not given)
Reply: > 100 µM (inactive)

Query: Also CC[C@]12C=CCN3CC[C@@]4(c5cc(N=O)c(OC)cc5N(C)[C@H]4[C@@](O)(C(=O)NC(Cc4c[nH]c5ccccc45)C(=O)OC)[C@@H]1O)[C@@H]32 (stereo not given in full) ?
Reply: 15.3 µM (inactive)

Query: Do the same for Cc1ccccc1CN1CC=c2ccccc2=N1 please
Reply: > 100 µM (inactive)

Query: What do you have for COC(=O)/C=C1/CCC(C)(C(=O)NS(=O)(=O)c2ccc(C)cc2)C1(C)C (stereo not given) ?
Reply: > 100 µM (inactive)
